- system-under-test: recombinant human Cox-2 (r-hu Cox-2) (Homo sapiens, UniProt P35354)
- Sequence (P35354 18-604): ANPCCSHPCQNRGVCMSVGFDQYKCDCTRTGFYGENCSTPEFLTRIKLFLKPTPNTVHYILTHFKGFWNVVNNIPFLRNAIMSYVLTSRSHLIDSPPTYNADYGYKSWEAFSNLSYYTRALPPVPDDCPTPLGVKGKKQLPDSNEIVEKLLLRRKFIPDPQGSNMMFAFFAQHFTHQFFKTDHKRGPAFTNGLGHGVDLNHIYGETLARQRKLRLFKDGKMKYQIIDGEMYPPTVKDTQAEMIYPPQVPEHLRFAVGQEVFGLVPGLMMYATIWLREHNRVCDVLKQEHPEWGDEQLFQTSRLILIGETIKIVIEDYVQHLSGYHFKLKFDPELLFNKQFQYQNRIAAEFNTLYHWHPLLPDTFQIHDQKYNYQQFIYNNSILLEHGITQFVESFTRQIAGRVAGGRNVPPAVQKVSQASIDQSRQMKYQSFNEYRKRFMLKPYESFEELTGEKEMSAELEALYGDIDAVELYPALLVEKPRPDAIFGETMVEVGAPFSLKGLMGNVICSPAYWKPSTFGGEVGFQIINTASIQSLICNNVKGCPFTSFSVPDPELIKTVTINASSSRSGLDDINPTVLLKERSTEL
- assay-summary: Recombinant human PGHS-2 enzyme assay (RHUCX2)
- condition-description: read-out: RHUCX2 IC50 (parenthetical value)
pIC50: −log10 of the molar value.
# label = Condition met if pIC50 >= 7 else Condition not met

NS(=O)(=O)c1ccc(-c2cnn(Cc3cccc(F)c3)c(=O)c2-c2ccc(F)cc2)cc1 [Example 149] :: Condition met

Turning to the following molecule.
[Q] Could you tell me if the measured pIC50 of CS(=O)(=O)c1ccc(-c2cnn(-c3cccc(Cl)c3)c(=O)c2Oc2cccc(F)c2)cc1 [Example 411] reaches 7 or more?
[A] Condition met

Origin of the recorded values: patent US20020028938A1
